assayed-target: T1, recombinant human biotinylated mesothelin extracellular domain with C-terminal Avi-Tag (human, site selectively biotinylated in vitro with BirA enzyme at the C-terminal Avi-Tag)
T1 construct: Produced in HEK293F cells; as printed it includes a His tag and the Avi-Tag; Immobilised on a streptavidin sensor chip for SPR; also called human MSLN ECD; human mesothelin ECD
T1 chain: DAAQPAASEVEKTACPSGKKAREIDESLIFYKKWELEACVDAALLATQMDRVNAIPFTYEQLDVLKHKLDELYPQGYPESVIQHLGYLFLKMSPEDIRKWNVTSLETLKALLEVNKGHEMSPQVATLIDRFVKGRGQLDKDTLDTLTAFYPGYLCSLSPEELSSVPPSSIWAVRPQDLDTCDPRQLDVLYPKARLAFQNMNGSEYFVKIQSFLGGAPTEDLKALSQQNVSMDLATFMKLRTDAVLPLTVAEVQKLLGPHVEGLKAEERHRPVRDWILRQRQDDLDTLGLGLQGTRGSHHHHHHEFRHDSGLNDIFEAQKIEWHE
method-summary: SPR, Biacore T200; biotinylated mesothelin ECD on streptavidin chip, scFv injected; 1:1 binding model
reported-endpoint: kon (M⁻¹ s⁻¹)
Quick reminder: number only, in M⁻¹ s⁻¹, skip the unit.

Example entries and their recorded answers appear below.
1. M5 scFv (human anti-mesothelin scFv, soluble, His-tagged) (scFv, also called scFv M5; XP31-20LC) scFv: QVQLVQSGAEVEKPGASVKVSCKASGYTFTDYYMHWVRQAPGQGLEWMGWINPNSGGTNYAQKFQGRVTMTRDTSISTAYMELSRLRSDDTAVYYCASGWDFDYWGQGTLVTVSSGGGGSGGGGSGGGGSGGGGSDIVMTQSPSSLSASVGDRVTITCRASQSIRYYLSWYQQKPGKAPKLLIYTASILQNGVPSRFSGSGSGTDFTLTISSLQPEDFATYYCLQTYTTPDFGPGTKVEIKGSHHHHHHHH ... 42000
2. M17 scFv (human anti-mesothelin scFv, soluble, His-tagged) (scFv, also called NS89-94MD) scFv: EVQLVESGGGLVQPGRSLRLSCAASGFTFDDYAMHWVRQAPGKGLEWVSGISWNSGSTGYADSVKGRFTISRDNAKNSLYLQMNSLRAEDTALYYCAKDSSSWYGGGSAFDIWGQGTMVTVSSGGGGSGGGGSGGGGSSSELTQDPAVSVALGQTVRITCQGDSLRSYYASWYQQKPGQAPVLVIYGKNNRPSGIPDRFSGSSSGNTASLTITGAQAEDEADYYCNSRGSSGNHYVFGTGTKVTVLGSHHHHHHHH ... 522000
3. M16 scFv (human anti-mesothelin scFv, soluble, His-tagged) (scFv, also called XS87-99RD) scFv: EVQLVESGGGLVQPGRSLRLSCAASGFTFDDYAMHWVRQAPGKGLEWVSGISWNSGSTGYADSVKGRFTISRDNAKNSLYLQMNSLRAEDTALYYCAKDSSSWYGGGSAFDIWGQGTMVTVSSGGGGSGGGGSGGGGSSSELTQEPAVSVALGQTVRITCQGDSLRSYYASWYQQKPGQAPVLVIFGRSRRPSGIPDRFSGSSSGNTASLIITGAQAEDEADYYCNSRDNTANHYVFGTGTKLTVLGSHHHHHHHH ... 174000

// below: kon requested for another binder
Query: // lookup kon for M14 scFv (human anti-mesothelin scFv, soluble, His-tagged) (scFv, also called BS83-95ID) scFv: QVQLVQSGAEVRAPGASVKISCKASGFTFRGYYIHWVRQAPGQGLEWMGIINPSGGSRAYAQKFQGRVTMTRDTSTSTVYMELSSLRSDDTAMYYCARTASCGGDCYYLDYWGQGTLVTVSSGGGGSGGGGSGGGGSGGGGSDIQMTQSPPTLSASVGDRVTITCRASENVNIWLAWYQQKPGKAPKLLIYKSSSLASGVPSRFSGSGSGAEFTLTISSLQPDDFATYYCQQYQSYPLTFGGGTKVDIKGSHHHHHHHH
Result: 2.75e+06
